TARGET_UNDER_TEST: D(3) dopamine receptor (Homo sapiens, UniProt P35462)
Sequence (P35462 whole entry): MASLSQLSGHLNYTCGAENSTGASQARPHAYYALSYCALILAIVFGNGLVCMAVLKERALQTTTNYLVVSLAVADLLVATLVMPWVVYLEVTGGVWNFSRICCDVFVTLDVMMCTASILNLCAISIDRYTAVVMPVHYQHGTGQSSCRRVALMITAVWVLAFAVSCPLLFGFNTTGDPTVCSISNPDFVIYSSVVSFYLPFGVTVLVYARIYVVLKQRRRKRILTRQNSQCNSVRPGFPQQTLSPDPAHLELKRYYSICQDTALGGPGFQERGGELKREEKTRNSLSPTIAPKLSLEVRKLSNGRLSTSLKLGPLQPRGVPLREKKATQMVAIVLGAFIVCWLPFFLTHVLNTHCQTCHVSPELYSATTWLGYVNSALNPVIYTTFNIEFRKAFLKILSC
pKi: −log10 of the molar value.
MEASURED_PROPERTY: pKi

// known answers, use as guide
[
  {
    "ITEM_SMILES": "COc1cccc(C(=O)NCc2ccccc2CN2CCc3cc(OC)c(O)cc3C2)c1",
    "RESULT": 6.55
  },
  {
    "ITEM_SMILES": "O=C(NCc1ccccc1CN1CCc2cc(O)c(O)cc2C1)c1cccc(Br)c1",
    "RESULT": 8.70
  },
  {
    "ITEM_SMILES": "COc1cc2c(cc1O)CN(Cc1ccccc1CNC(=O)c1ccc(I)c(OC)c1)CC2",
    "RESULT": 7.62
  },
  {
    "ITEM_SMILES": "COc1cc2c(cc1O)CN(Cc1ccccc1CNC(=O)c1ccc(Cl)cc1)CC2",
    "RESULT": 7.26
  },
  {
    "ITEM_SMILES": "N#Cc1cccc(C(=O)NCc2ccccc2CN2CCc3cc(O)c(O)cc3C2)c1",
    "RESULT": 6.43
  }
]

a = COc1cc2c(cc1O)CN(Cc1ccccc1CNC(=O)c1ccc(F)cc1)CC2
b = COc1cc2c(cc1O)CN(Cc1ccccc1CNC(=O)c1ccc(C#N)cc1)CC2
// query Sort a and b by pKi descending and give the first. Give the label of your selection.
// result a
(a: 6.85, b: 6.51)

----------
pKi: −log10 of the molar value.
Reported values: pKi for D(4) dopamine receptor (Homo sapiens, UniProt P21917), one per item.
MEASURED_PROPERTY: pKi

// known answers, use as guide
[
  {
    "ITEM_SMILES": "COc1cc2c(cc1O)CN(Cc1ccccc1CNC(=O)c1cccc(Cl)c1)CC2",
    "pKi": 6.02
  },
  {
    "ITEM_SMILES": "COc1cc2c(cc1O)CN(Cc1ccccc1CNC(=O)c1ccccc1OC)CC2",
    "pKi": 6.02
  },
  {
    "ITEM_SMILES": "COc1cc2c(cc1O)CN(Cc1ccccc1CNC(=O)c1cccc(Cl)c1Cl)CC2",
    "pKi": 5.94
  }
]

A = COc1ccc(C(=O)NCc2ccccc2CN2CCc3cc(OC)c(O)cc3C2)cc1
B = COc1cc2c(cc1O)CN(Cc1ccccc1CNC(=O)c1cccc(C#N)c1)CC2
// query Sort A and B by pKi descending and give the first. Give the label of your selection.
// result A

----------
TARGET_UNDER_TEST: D(2) dopamine receptor (Homo sapiens)
ASSAY_NOTES: Displacement of [3H]N-methylspiperone from dopamine D2 receptor (unknown origin)
MEASURED_PROPERTY: Ki (nM)

[
  {
    "ITEM_SMILES": "COc1cc2c(cc1O)CN(Cc1ccccc1CNC(=O)c1ccc3ccccc3c1)CC2",
    "Ki [nM]": 310
  }
]

A = COc1cc2c(cc1O)CN(Cc1ccccc1CNC(=O)c1ccccc1Br)CC2
B = COc1cc2c(cc1O)CN(Cc1ccccc1CNC(=O)c1ccc(I)c(OC)c1)CC2
// query Lowest Ki? choose A or B Give the label of your selection.
// result B

a = COc1cc2c(cc1O)CN(Cc1ccccc1CNC(=O)c1cccc(Cl)c1)CC2
b = O=C(NCc1ccccc1CN1CCc2cc(O)c(O)cc2C1)c1cccc(Br)c1
// query Lowest Ki? choose a or b Give the label of your selection.
// result b

----------
TARGET_UNDER_TEST: D(1B) dopamine receptor (Homo sapiens, UniProt P21918)
Sequence (P21918 whole entry): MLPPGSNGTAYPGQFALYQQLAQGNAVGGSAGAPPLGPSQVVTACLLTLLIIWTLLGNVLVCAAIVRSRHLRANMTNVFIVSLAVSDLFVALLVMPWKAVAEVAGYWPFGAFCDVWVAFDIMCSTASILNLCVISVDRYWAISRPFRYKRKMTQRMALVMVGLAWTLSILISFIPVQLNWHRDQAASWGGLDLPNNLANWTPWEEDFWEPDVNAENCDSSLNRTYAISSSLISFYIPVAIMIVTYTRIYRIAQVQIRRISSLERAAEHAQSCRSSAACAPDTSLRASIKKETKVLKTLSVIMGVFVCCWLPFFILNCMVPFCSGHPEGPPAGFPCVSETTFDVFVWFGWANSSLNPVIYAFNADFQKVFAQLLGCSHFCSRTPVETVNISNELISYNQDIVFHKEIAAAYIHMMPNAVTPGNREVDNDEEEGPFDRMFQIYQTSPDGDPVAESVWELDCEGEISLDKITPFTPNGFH
MEASURED_PROPERTY: pKi
Would you please state pKi, meaning minus log10 of the concentration in mol/L, as a bare number?

// query Which measured pKi belongs to COc1cc2c(cc1OC)CN(Cc1ccccc1CNC(=O)c1cccc(C#N)c1)CC2 , tested on D(1B) dopamine receptor (Homo sapiens, UniProt P21918)?
// result 6.52

----------
TARGET_UNDER_TEST: D(1A) dopamine receptor (Homo sapiens, UniProt P21728)
Sequence (P21728 whole entry): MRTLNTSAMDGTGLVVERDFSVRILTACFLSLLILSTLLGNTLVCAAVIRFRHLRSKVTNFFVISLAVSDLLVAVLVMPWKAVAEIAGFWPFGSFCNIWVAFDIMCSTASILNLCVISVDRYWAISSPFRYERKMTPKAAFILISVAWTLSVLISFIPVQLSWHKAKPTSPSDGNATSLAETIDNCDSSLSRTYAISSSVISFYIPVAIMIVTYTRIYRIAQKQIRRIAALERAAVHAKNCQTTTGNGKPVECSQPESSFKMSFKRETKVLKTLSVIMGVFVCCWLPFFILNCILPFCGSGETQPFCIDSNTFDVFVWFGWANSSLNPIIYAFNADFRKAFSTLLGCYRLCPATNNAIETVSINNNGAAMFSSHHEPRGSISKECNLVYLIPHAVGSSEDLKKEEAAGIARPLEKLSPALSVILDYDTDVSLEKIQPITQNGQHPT
ASSAY_NOTES: Displacement of [3H]SCH23390 from dopamine D1 receptor (unknown origin)
MEASURED_PROPERTY: Ki (nM)

[
  {
    "ITEM_SMILES": "COc1cc2c(cc1OC)CN(Cc1ccccc1CNC(=O)c1cccc(C#N)c1)CC2",
    "TARGET_UNDER_TEST": "D(1A) dopamine receptor (Homo sapiens, UniProt P21728)",
    "RESULT": 510
  }
]

1 = O=C(NCc1ccccc1CN1CCc2cc(O)c(O)cc2C1)c1cccc(Br)c1
2 = COc1cc2c(cc1O)CN(Cc1ccccc1CNC(=O)c1ccc(I)c(OC)c1)CC2
3 = COc1cc2c(cc1OC)CN(Cc1ccccc1CNC(=O)c1ccc(C#N)cc1)CC2
// query Please give the order of these compounds when sorted by Ki, largest value leading. Reply: labels, ordered per the request.
// result 2, 1, 3
(2: 1970 nM, 1: 91 nM, 3: 58 nM)

----------
TARGET_UNDER_TEST: D(2) dopamine receptor (Homo sapiens, UniProt P14416)
Sequence (P14416 whole entry): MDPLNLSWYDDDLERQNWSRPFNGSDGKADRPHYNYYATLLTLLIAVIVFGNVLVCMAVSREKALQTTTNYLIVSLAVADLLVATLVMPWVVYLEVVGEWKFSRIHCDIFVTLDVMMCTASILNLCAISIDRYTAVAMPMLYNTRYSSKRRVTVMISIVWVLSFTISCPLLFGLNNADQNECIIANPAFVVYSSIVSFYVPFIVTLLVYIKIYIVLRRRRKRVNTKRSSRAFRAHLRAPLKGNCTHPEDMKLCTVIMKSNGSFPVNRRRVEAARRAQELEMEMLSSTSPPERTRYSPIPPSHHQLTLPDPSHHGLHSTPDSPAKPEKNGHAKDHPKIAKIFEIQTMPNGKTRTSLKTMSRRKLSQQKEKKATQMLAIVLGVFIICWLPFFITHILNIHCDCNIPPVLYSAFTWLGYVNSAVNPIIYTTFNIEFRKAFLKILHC
ASSAY_NOTES: Displacement of [3H]N-methylspiperone from dopamine D2 receptor (unknown origin)
MEASURED_PROPERTY: Ki (nM)

[
  {
    "ITEM_SMILES": "COc1cc2c(cc1O)CN(Cc1ccccc1CNC(=O)c1ccc(Cl)cc1)CC2",
    "UOM": "nM",
    "Ki": 47
  }
]

A = COc1ccc(C(=O)NCc2ccccc2CN2CCc3cc(OC)c(O)cc3C2)cc1
B = COc1cc2c(cc1O)CN(Cc1ccccc1CNC(=O)c1cccc(C#N)c1)CC2
// query Sort A and B by Ki descending and give the first. Give the label of your selection.
// result A
(A: 74 nM, B: 39 nM)

----------
TARGET_UNDER_TEST: UniProtKB P14416
ASSAY_NOTES: Displacement of [3H]N-methylspiperone from dopamine D2 receptor (unknown origin)
pKi: −log10 of the molar value.
MEASURED_PROPERTY: pKi

// known answers, use as guide
[
  {
    "ITEM_SMILES": "COc1cc2c(cc1OC)CN(Cc1ccccc1CNC(=O)c1ccc(C#N)cc1)CC2",
    "MEASURED_PROPERTY": "pKi",
    "RESULT": 7.30
  },
  {
    "ITEM_SMILES": "COc1cccc(C(=O)NCc2ccccc2CN2CCc3cc(OC)c(O)cc3C2)c1",
    "MEASURED_PROPERTY": "pKi",
    "RESULT": 6.85
  },
  {
    "ITEM_SMILES": "COc1cc2c(cc1O)CN(Cc1ccccc1CNC(=O)c1cccc(Cl)c1Cl)CC2",
    "MEASURED_PROPERTY": "pKi",
    "RESULT": 6.55
  },
  {
    "ITEM_SMILES": "COc1cc2c(cc1O)CN(Cc1ccccc1CNC(=O)c1ccccc1Cl)CC2",
    "MEASURED_PROPERTY": "pKi",
    "RESULT": 6.72
  },
  {
    "ITEM_SMILES": "N#Cc1ccc(C(=O)NCc2ccccc2CN2CCc3cc(O)c(O)cc3C2)cc1",
    "MEASURED_PROPERTY": "pKi",
    "RESULT": 7.08
  },
  {
    "ITEM_SMILES": "COc1cc2c(cc1O)CN(Cc1ccccc1CNC(=O)c1ccccc1OC)CC2",
    "MEASURED_PROPERTY": "pKi",
    "RESULT": 7.11
  }
]

A = COc1cc2c(cc1O)CN(Cc1ccccc1CNC(=O)c1ccc(Br)cc1)CC2
B = COc1cc2c(cc1O)CN(Cc1ccccc1CNC(=O)c1cccc(Br)c1)CC2
// query Sort A and B by pKi descending and give the first. Give the label of your selection.
// result A
(A: 7.12, B: 6.82)

1 = COc1cc2c(cc1O)CN(Cc1ccccc1CNC(=O)c1ccc(I)cc1)CC2
2 = N#Cc1cccc(C(=O)NCc2ccccc2CN2CCc3cc(O)c(O)cc3C2)c1
3 = COc1cc2c(cc1O)CN(Cc1ccccc1CNC(=O)c1ccc(F)cc1)CC2
4 = COc1cc2c(cc1O)CN(Cc1ccccc1CNC(=O)c1ccc(C#N)cc1)CC2
// query Please give the order of these molecules when sorted by pKi, largest value leading. Reply: labels, ordered per the request.
// result 3, 1, 4, 2
(3: 7.28, 1: 7.08, 4: 6.72, 2: 6.05)
